system: SK-MEL-2 melanoma; experiment: NCI-60 one-dose screen, 48 h; details: 10 µM unless noted
About 83,000 compounds went through this panel and 20% of them were active in at least one assay; those are over-represented in the sample as a whole. Activity calls are given as the source filed them. The calls were made as follows: active = growth percent below 10; inactive = the rest.
Possible outcomes: 1 (yes) for active, 0 (no) for inactive

compound | class-assignment
O=C(c1ccc(Cl)cc1)C1[C@H](c2ccccc2Cl)[C@@H](c2ccccc2)NC12C(=O)Nc1ccc(Cl)cc12 (stereo not given in full) | 1 (yes)
Nc1nn2c(-c3cc4ccccc4oc3=O)ccnc2c1N=Nc1ccccc1 | 0 (no)
COc1ccc2[nH]c(O)c(N=Nc3nc(-c4ccc(Cl)cc4)cs3)c2c1 | 0 (no)
O=C1NC(=S)/C(=C/c2cn(-c3ccccc3)nc2-c2ccccc2)S1 | 1 (yes)
CS(=O)(=O)Nc1cccc(-n2cnc3cc(-c4ccc(O)cc4)ccc32)c1 | 0 (no)
COc1c(B(O)O)cccc1-c1nc2ccc3cn[nH]c3c2c2c1CCCC2 | 0 (no)
Cc1ccc(N=Nc2c(N)nn3c(-c4cc5ccccc5oc4=O)ccnc23)cc1 | 0 (no)
O=C(Nc1ccc(S(=O)(=O)N2CCCCC2)cc1)C(Cl)Cl | 0 (no)
O=C(Nc1nc2ccc([N+](=O)[O-])cc2s1)Nc1ccccc1F | 1 (yes)
CCCCCCCCc1cccc(CC(=O)Nc2ccc(C)cc2C(=O)O)c1 | 0 (no)
